study system: T1, Copenhagen B5 on cells infected with VVCopenhagen (YFP) virus (Vaccinia virus, Copenhagen strain, UniProt P21115 18-317)
T1 construct: also called VV B5
assay notes: flow cytometry, HT29 cells infected with Copenhagen VV
Each entry below lists one item and its recorded pEC50 value.
Just the number, please; pEC50 means minus log10 of the concentration in mol/L.

Here are 2 binders together with their reported answers.
binder	pEC50
A048-H1L1 (antibody, V domains shown) VH: EVQLLESGGGLVQPGGSLRLSCAASGFSFSSSYYMCWVRQAPGKGLEWIACIYTSSGSAYYANWAKGRFTISRDNSKNTLYLQMNSLRAEDTAVYYCVRNAVGSSYYLYLWGQGTLVTVSS VL: DIQMTQSPSTLSASVGDRVTITCQASQSVAGNNYLSWYQQKPGKAPKLLIYSVSTLASGVPSRFSGSGSGTEFTLTISSLQPDDFATYYCQGYYNDGIWAFGQGTKVEIK	8.63
A048-H3L4 (antibody, V domains shown) VH: EVQLLESGGGLVQPGGSLRLSCAASGFSFSSSYYMCWVRQAPGKGLEWIACIYTSSGSAYYADSVKGRFTISRDNSKNTLYLQMNSLRAEDTAVYYCVRNAVGSSYYLYLWGQGTLVTVSS VL: AQVLTQSPSSLSASVGDRVTITCQASQSVAGNNYLSWYQQKPGKVPKLLIYSVSTLASGVPSRFSGSGSGTDFTLTISSLQPEDVATYYCQGYYNDGIWAFGQGTKVEIK	8.71

Query A048-H1L3 (antibody, V domains shown) VH: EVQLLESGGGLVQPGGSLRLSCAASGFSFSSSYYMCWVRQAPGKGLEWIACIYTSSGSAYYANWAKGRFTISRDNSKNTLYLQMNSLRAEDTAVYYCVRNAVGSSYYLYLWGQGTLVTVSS VL: DIQMTQSPSSLSASVGDRVTITCQASQSVAGNNYLSWYQQKPGKVPKLLIYSVSTLASGVPSRFSGSGSGTDFTLTISSLQPEDVATYYCQGYYNDGIWAFGQGTKVEIK yields pEC50 of 8.73
